These data points were gathered from patent US20040209934A1.

# target: PP1 (Homo sapiens, UniProt P62136)
# Sequence (P62136 whole entry): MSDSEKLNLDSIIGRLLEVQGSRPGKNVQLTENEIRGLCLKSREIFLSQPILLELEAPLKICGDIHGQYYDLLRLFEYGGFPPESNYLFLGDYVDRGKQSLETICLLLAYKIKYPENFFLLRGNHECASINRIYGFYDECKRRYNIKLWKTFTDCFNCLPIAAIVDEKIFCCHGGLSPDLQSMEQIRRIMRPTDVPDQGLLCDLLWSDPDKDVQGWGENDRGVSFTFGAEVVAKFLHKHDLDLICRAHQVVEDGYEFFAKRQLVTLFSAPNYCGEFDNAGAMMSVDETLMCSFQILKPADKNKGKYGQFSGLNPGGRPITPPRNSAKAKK
# assay.method.text: Protein phosphatase assay with [32P]-glycogen phosphorylase a as substrate, PP1
# Assay type: biochemical
# Design: made in house
# setup.conditions: Table 3 summary; read-out: PP1 Inhibition
Please respond with reported IC50 for every item in the list.
Numbers only; they are read as µM.

Any idea what its IC50 is? The compound is O=C(O)[C@H](Cc1cnc[nH]1)N1C(=O)C2C3CCC(O3)C2C1=O (some centres unmarked)
2.82

What IC50 value was documented for this compound, O=C(O)[C@@H](Cc1cnc[nH]1)N1C(=O)C2C3CCC(O3)C2C1=O (some centres unmarked) ?
3.22

---

# target: PP1 (Homo sapiens, UniProt P62136)
# assay.method.text: Protein phosphatase assay with [32P]-glycogen phosphorylase a as substrate, PP1
# Format: biochemical
# Parameters: made in house
# setup.conditions: Table 2 cantharimides; average of three experiments in triplicate; read-out: PP1 Inhibition IC50
measured.parameter: IC50 (µM)
# output: bare number, implied unit µM

Item under review: O=C(O)C(Cc1ccc(O)cc1)N1C(=O)C2C3CCC(O3)C2C1=O (single isomer, unassigned) [Compound 17] . Reported IC50?
570

Which IC50 is listed for O=C1OC(=O)[C@H]2[C@@H]1[C@@H]1CC[C@H]2O1 [Compound 3, norcantharidin, reference compound] ?
5.31

Entry NC(=O)CC[C@H](C(=O)O)N1C(=O)C2C3CCC(O3)C2C1=O (stereo partly drawn) [Compound 18] has what IC50?
95

Data request, read-out IC50, for O=C(O)[C@H](Cc1cnc[nH]1)N1C(=O)C2C3CCC(O3)C2C1=O (stereo partly drawn) [Compound 15]
2.82

// IC50 lookup, key: O=C(O)[C@@H](Cc1cnc[nH]1)N1C(=O)C2C3CCC(O3)C2C1=O (stereo partly drawn) [Compound 14]
3.22

// query IC50 value for entry O=C(O)C(Cc1ccc(O)cc1)N1C(=O)C2C3CCC(O3)C2C1=O (single isomer, unassigned) [Compound 16]
101

---

# Tested on: L1210 (murine leukaemia, p53 mt)
# assay.method.text: cells
# Assay type: cell-based
# setup.conditions: Mus musculus, Table 3, read-out: Cytotoxicity IC50, L1210
Kindly supply the reported IC50 values for the records listed here.
Dear colleague, please return just the value in µM, with no unit written.

Field request: IC50 | item: O=C(O)[C@H](Cc1cnc[nH]1)N1C(=O)C2C3CCC(O3)C2C1=O (some centres unmarked)
30

So what does the record say about IC50 for O=C(O)[C@@H](Cc1cnc[nH]1)N1C(=O)C2C3CCC(O3)C2C1=O (some centres unmarked) ?
6

---

# Test system: WiDr (human colon carcinoma, p53 mt)
# assay.method.text: cells
# Type: cell-based
# setup.conditions: 72 h, read-out: Cytotoxicity IC50, WiDr Colon
measured.parameter: pIC50
pIC50 (log units): -log10 of the concentration in mol/L.

# query: pIC50 of entry CCCOC(=O)C1C(C(=O)O)[C@@H]2CC[C@H]1O2 (stereo partly shown)
4.48
